Give MIC for every item shown.
system: Cryptococcus neoformans; assay: Antifungal activity against Cryptococcus neoformans after 72 hrs by micro broth dilution method; type: functional

Briefly, MIC measured for OC(Cn1cncn1)(Cn1cncn1)c1ccc(F)cc1F : 1 µg/mL

MIC recorded for this compound, O=C1C(Cl)=C(Sc2cccc3ccccc23)C(=O)c2ccccc21 , is 50 µg/mL

What the record says about O=c1c2[nH]c3ccccc3sc=2c(=O)c2ccccc12 : MIC is > 50 µg/mL

Field MIC (entry COc1cccc(SC2=C(Sc3cccc(OC)c3)C(=O)c3ccccc3C2=O)c1 ) reads > 50 µg/mL

Recorded MIC (compound O=c1c2[nH]c3ccc4ccccc4c3sc=2c(=O)c2ccccc12 ): > 50 µg/mL

Record COc1ccc2[nH]c3c(=O)c4ccccc4c(=O)c=3sc2c1 . Reported MIC: > 50 µg/mL

MIC reading for O=C1C(Sc2ccccc2)=C(Sc2ccccc2)C(=O)c2ccccc21 : > 50 µg/mL

Note to self: MIC recorded for O=C1C(Cl)=C(Cl)C(=O)c2ccccc21 was 3.12 µg/mL

====

system: HeLa; experiment: Antiproliferative activity against human HeLa cells at 5 uM after 24 hrs by sulforhodamine B assay; type: functional
# class assignment by measured inhibition at 5 µM: zone 1: < 20%; zone 2: ≥ 20% and < 40%; zone 3: ≥ 40%

INPUT: Note: place this molecule into its band. Item: O=c1c2[nH]c3ccccc3sc=2c(=O)c2ccccc12
OUTPUT: zone 1

INPUT: Dear colleague, I would appreciate it if you could identify the bin for O=C1C(Sc2ccccc2)=C(Sc2ccccc2)C(=O)c2ccccc21 and reply at your convenience.
OUTPUT: zone 3

INPUT: State the class of the molecule shown: O=C1C(Cl)=C(Cl)C(=O)c2ccccc21 [Dichlon]
OUTPUT: zone 3

INPUT: Into which category would you place O=C1C(Cl)=C(Sc2ccccc2)C(=O)c2ccccc21 ?
OUTPUT: zone 2

INPUT: Band for O=c1c2[nH]c3ccc4ccccc4c3sc=2c(=O)c2ccccc12 ?
OUTPUT: zone 1

INPUT: Input O=C1C(Sc2cccc3ccccc23)=C(Sc2cccc3ccccc23)C(=O)c2ccccc21 ; output its category
OUTPUT: zone 2

INPUT: Please classify: COc1cccc(SC2=C(Sc3cccc(OC)c3)C(=O)c3ccccc3C2=O)c1
OUTPUT: zone 3

INPUT: Which bin, given its inhibition at 5 µM, does O=C1C(Cl)=C(Sc2cccc3ccccc23)C(=O)c2ccccc21 occupy?
OUTPUT: zone 2

INPUT: Class label required: COc1cccc(SC2=C(Cl)C(=O)c3ccccc3C2=O)c1
OUTPUT: zone 3

====

Would you mind telling me the reported log10(MIC) of each entry?
tested on: Candida parapsilosis; experiment: Antifungal activity against Candida parapsilosis ATCC 22019 after 48 hrs by micro broth dilution method; type: functional; settings: Lodderomyces parapsilosis, ATCC 22019, 48 h
Heads up, the numbers here are log10 of MIC in µg/mL units.

Form field, log10(MIC) with Candida parapsilosis, item O=C1C(Cl)=C(Sc2cccc3ccccc23)C(=O)c2ccccc21 : 1.70

Entry O=C1C(Cl)=C(Cl)C(=O)c2ccccc21 under Candida parapsilosis had log10(MIC) of 0.19

Known value: Candida parapsilosis log10(MIC) of the molecule O=C1C(Cl)=C(Sc2ccccc2)C(=O)c2ccccc21 equals 0.80

Field log10(MIC) (Candida parapsilosis), entry OC(Cn1cncn1)(Cn1cncn1)c1ccc(F)cc1F : 0.30

Value sought: log10(MIC), system Candida parapsilosis, item COc1cccc(SC2=C(Cl)C(=O)c3ccccc3C2=O)c1 . Result: 1.40
